biological target: T1, human full-length Notch3 with C-terminal FLAG tag, stably expressed on 293 FlpIn (TREx) cells (human, UniProt Q9UM47 40-2321); assay: FACS, phage scFv
T1 construct: whole, on cells; made by the same strategy as the Notch1 line; also called 293-N3; hN3

| BINDER | binding result |
| --- | --- |
| hN1S3-092 (scFv, V domains shown, phage scFv) VH: EVQLVQSGAEVKKPGASVKVSCKASGYNFTGYYMHWVRQAPGQGLEWMGWINPNSGGTNYAQKFQGRVTMTRDTSISTAYMELSRLRSDDTAVYYCATDSFDYWGQGTLVTVSS VL: QSVLTQPPSASGTPGQRVTISCSGSSSNIGANYVYWYQQLPGTAPKLLIYKNDQRPSGVPDRFSGSKSGTSASLAISGLRSEDEADYYCAAWDDSLSGLVFGGGTKVTVL | binds |
| N1wc441 (scFv, V domains shown, phage scFv) VH: QVQLVQSGAEVKKPGASVKVSCKAPGYSFTDYYLHWVRQAPGIGLEWVGWINPNNGGTNYAQKFRGRVTMTRDTAINTAYMDMRWLRSDDTAVYYCATDGPPGTGNAFDIWGRGTLVTVSS VL: SYELTQPPSVSVSPGQTARITCSGDALPDKYVHWYQQKSGQAPVLVLFDDSKRPSGIPERFSGSSSGTVATLIISGAQVEDEGDFFCYSTDSSGNERVFGGGTKLTVL | binds |
| N1wc131 (scFv, V domains shown, phage scFv) VH: EVQLVQSGAEAKKPGASVKVSCKASGYNFTGYYMHWVRQAPGQGLEWMGWINPNSGGTNYAQKFQGRVTMTRDTSISTAYMELSRLRSDDTAVYYCATDSFDYWGQGTLVTVSS VL: SYELTQPPSASGTPGQRVTISCSGTSSNIGINYVYWYQQLPRTAPKLLIYYNNQRPSGVPDRFSGSRSGTSASLAISGLRSEDEADYYCAAWDDSLSGLVFGTGTKLTVL | binds |
